Sourced from patent US20080107658A1

Property: IC50, FLIPR calcium mobilisation; scope: individual binders
biological target: mouse nerve growth factor (mouse, UniProt P01139 122-241); experiment: cell-based or functional assay
Sequence (P01139 122-241): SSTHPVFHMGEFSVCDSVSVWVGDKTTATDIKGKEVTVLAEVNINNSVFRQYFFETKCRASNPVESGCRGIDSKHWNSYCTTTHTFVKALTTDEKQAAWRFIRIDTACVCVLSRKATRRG
measurement.type: IC50, FLIPR calcium mobilisation (nM)

[
  {
    "binder": "1133C11 human IgG4 (antibody, V domains shown) VH: EVQLVQSGAEVKKPGSSVKVSCKASGGTFSTYGISWVRQAPGQGLEWIGGIIPIFDTGNSAQSFQGRVTITADESTSTAYMEVSSLRSDDTAVYYCASSSRIYDLNPSLTAYYDMDVWGQGTMVTVSS VL: QAVLTQPSSVSTPPGQKVTISCSGSSSNIGNNYVSWYQQLPGTAPKLLIYDNNKRPSGIPDRFSGSKSGTSATLGITGLQTGDEADYYCGTWDSSLSAWVFGGGTKLTVL",
    "reported": 0.28
  },
  {
    "binder": "1147D2 human IgG4 (antibody, V domains shown) VH: EVQLVQSGAEVKKPGSSVRISCKASGGTFSTYGVSWVRQAPGQGLEWIGGIIPIFDTGNSAQSFQGRVTITADESTSTAYMEVSSLRSDDTAVYYCASSSRIYDLNPSLTAYYDMDVWGQGTMVTVSS VL: QAVLTQPSSVSTPPGQKVTISCSGSSSNIGNNYVSWYQQLPGTAPKLLIYDNNKRPSGVPDRFSGSKSGTSATLGITGLQTGDEADYYCGTWDSSLSAWVFGGGTKLTVL",
    "reported": 0.24
  },
  {
    "binder": "1227H8 human IgG4 (antibody, V domains shown) VH: QMQLVQSGAEVKKTGSSVKVSCKASGHTFAYHYLHWVRQAPGQGLEWMGGIIPIFGTTNYAQRFQDRVTITADESTSTAYMELSSLRSEDTAVYYCASADYAWESYQPPQINGVWGRGTMVTVSS VL: QSVLTQPPSVSAAPGQKVTITCSGSTSNIGNNYVSWYQQHPGKAPKLMIYDVSKRPSGVPDRFSGSKSGNSASLDISGLQSEDEADYYCAAWDDSLSEFFFGTGTKLTVL",
    "reported": 0.48
  },
  {
    "binder": "1127F9 human IgG4 (antibody, V domains shown) VH: EVQLVQSGAEVKKPGSSVKVSCKASGGTFSTYGISWVRQAPGQGLEWIGGIIPIFDTGNSAQSFQGRVTITADESTSTAYMKVSSLRSDDTAVYYCASSSRIYDYIPGMRPYYDMDVWGQGTMVTVSS VL: QAVLTQPSSVSTPPGQKVTISCSGNSSNIGNNYVSWYQQLPGTAPKLLIYDNNKRPSGIPDRFSGSRSGTLATLGITGLQTGDEADYYCGTWDSSLSAWVFGGGTKLTVL",
    "reported": 0.2
  },
  {
    "binder": "1230H7 human IgG4 (antibody, V domains shown) VH: EMQLVQSGAEVKKPGSSVKVSCKASGGTFSTYGISWVRQAPGQGLEWIGGIIPIFDTGNSAQSFQGRVTITADESTSTAYMEVSSLRSDDTAVYYCASSSRIYDFNSALISYYDMDVWGQGTMVTVSS VL: QAVLTQPSSVSTPPGQKVTISCSGSSSNIGNNYVSWYQQLPGTAPKLLIYDNNKRPSGIPDRFSGSKSGTSATLGITGLQTGDEADYYCGTWDSSLSAWVFGGGTKLTV",
    "reported": 0.15
  },
  {
    "binder": "1134D9 human IgG4 (antibody, V domains shown) VH: EVQLVQSGAEVKKPGSSVKVSCKASGGTFSTYGISWVRQAPGQGLEWIGGIIPIFDTGNSAQSFQGRVAITADESTSTAYMEVSSLRSDDTAVYYCASSSRIYDLNPSLTAYYDMDVWGQGTMVTVSS VL: QAVLTQPSSVSTPPGQKVTISCSGSSSNIGNNYVSWYQQLPGTAPKLLIYDNNKRPSGIPDRFSGSKSGTSATLGITGLQTGDEADYYCGTWDSGLSAWVFGGGTKLTVL",
    "reported": 0.16
  },
  {
    "binder": "1152H5 human IgG4 (antibody, V domains shown) VH: EVQLVQSGAEVKKPGSSVKVSCKASGGTFSTYGISWVRQAPGQGLVWIGGIIPIFDTGNSAQSFQGRVTITADESTSTAYMEVSSLRSDDTAVYYCASSSRIYDMISSLQPYYDMDVWGQGTMVTVSS VL: QAVLTQPSSVSTPPGQKATISCSGSSSNIGNNYVSWYQQLPGTAPKLLIYDNNKRPSGIPDRFSGSKSGTSATLGITGLQTGDEADYYCGTWDSSLSAWVFGGGTKLTVL",
    "reported": 0.14
  },
  {
    "binder": "1160E3 human IgG4 (antibody, V domains shown) VH: EVQLVQSGAEVKKPGSSAKVSCKASGGTFSTYGISWVRQAPGQGLEWIGGIIPIFDTGNSAQSFQGRVTITADESTSTAYMEVSSLRSDDTAVYYCASSSRIYDLNPSLTAYYDMDVWGQGTMVTVSS VL: QAVLTQPSSVSTPPGQKVTISCSGSNSNIGNNYVSWYQQLPGTAPKLLIYDNNKRPSGIPDRFSGSKSGTSATLGITGLQTGDEADYYCGTWDSSLSAWVFGGGTKLTV",
    "reported": 0.12
  },
  {
    "binder": "1145D1 human IgG4 (antibody, V domains shown) VH: EVQLVQSGAEVKKPGSSVKVSCKASGGTFSTYGISWVRQAPGQGLEWIGGIIPIFDTSNSAQSFQGRVTITADESTSTAYMEVSSLRSDDTAVYYCASSSRIYDFRTLYSTYYDMDVWGQGTMVTVSS VL: QAVLTQPSSVSTPPGQKVTISCSGSSSNIGNNYVSWYQQLPGTAPKLLIYDNNKRPSGISDRFSGSKSGTSATLGIAGLQTGDEADYYCGTWDSSLSAWVFGGGTKLTVL",
    "reported": 0.24
  },
  {
    "binder": "1127D9 human IgG4 (antibody, V domains shown) VH: EVQLVQSGAEVKKPGSSVKVSCKASGGTFSTYGISWVRQAPGQGLEWIGGIIPIFDTGNSAQSFQGRVTITADESTSTAYMEVSSLRSDDTAVYYCASSSRIYDYHTIAYYDMDVWGQGTMVTVSS VL: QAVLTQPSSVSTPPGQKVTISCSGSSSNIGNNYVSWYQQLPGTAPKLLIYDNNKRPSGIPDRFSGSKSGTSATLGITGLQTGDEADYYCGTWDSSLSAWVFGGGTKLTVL",
    "reported": 0.21
  }
]
